Tested on: RKO
TEST NAME: Solid tumor cell growth inhibition, MTT, 72 h
Assay type: cell-based
CONDITION CONTEXT: Homo sapiens
MEASURED METRIC: IC50 (µg/mL)

MOLECULE	IC50 / µg/mL
C=C1C(=O)[C@]23[C@H](OC(=O)c4ccc(Cl)cc4)[C@H]1CC[C@H]2[C@@]12CO[C@@]3(O)[C@@H](O)[C@@H]1C(C)(C)CC[C@@H]2OC(C)=O	0.41

[a] C=C1C(=O)[C@]23[C@H](OC(=O)c4ccc(Cl)cc4)[C@H]1CC[C@H]2[C@@]12CO[C@@]3(O)[C@@H](O)[C@@H]1C(C)(C)CCC2=O
[b] C=C1C(=O)[C@]23[C@H](OC(=O)C4CCN(S(=O)(=O)CC)CC4)[C@H]1CC[C@H]2[C@@]12CO[C@@]3(O)[C@@H](O)[C@@H]1C(C)(C)CCC2=O
Prompt: Between the entries labeled a and b , whose measured IC50 is lower? # respond with the chosen item's label
Response: a
(a: 0.46 µg/mL, b: 1.01 µg/mL)

[P] C=C1C(=O)[C@]23[C@H](OC(=O)c4ccc(OC)cc4)[C@H]1CC[C@H]2[C@@]12CO[C@@]3(O)[C@@H](O)[C@@H]1C(C)(C)CCC2OC(C)=O (some centres unmarked)
[Q] C=C1C(=O)[C@]23[C@H](O)[C@H]1CC[C@H]2[C@@]12CO[C@]3(O)[C@@H](O)[C@@H]1C(C)(C)CC[C@@H]2O
Prompt: Consider P and Q . Which of these has its IC50 at a higher number? # respond with the chosen item's label
Response: Q
(Q: 2.24 µg/mL, P: 0.41 µg/mL)

* * *

System: Becap-37
TEST NAME: Solid tumor cell growth inhibition, MTT, 72 h
Type: cell-based
CONDITION CONTEXT: Homo sapiens
MEASURED METRIC: IC50 (µg/mL)

Record excerpt, results attached:
MOLECULE	EXPERIMENTAL RESULT
C=C1C(=O)[C@]23[C@H](OC(=O)/C=C/c4ccccc4)[C@H]1CC[C@H]2[C@@]12CO[C@@]3(O)[C@@H](O)[C@@H]1C(C)(C)CC[C@@H]2OC(C)=O [BS-OR-094]	1.15
C=C1C(=O)[C@]23[C@H](OC(=O)c4ccc(OC)c(OC)c4)[C@H]1CC[C@H]2[C@@]12CO[C@@]3(O)[C@@H](O)[C@@H]1C(C)(C)CCC2=O [BS-OR-015]	0.99
C=C1C(=O)[C@]23[C@H](OC(=O)C4CC4)[C@H]1CC[C@H]2[C@@]12CO[C@@]3(O)[C@@H](O)[C@@H]1C(C)(C)CCC2=O [BS-OR-017]	1.13
C=C1C(=O)[C@]23[C@H](OC(=O)C4CCN(S(=O)(=O)c5cccc([N+](=O)[O-])c5)CC4)[C@H]1CC[C@H]2[C@@]12CO[C@@]3(O)[C@@H](O)[C@@H]1C(C)(C)CCC2=O [BS-OR-037]	2.75
C=C1C(=O)[C@]23[C@H](OC(=O)c4ccncc4)[C@H]1CC[C@H]2[C@@]12CO[C@@]3(O)[C@@H](O)[C@@H]1C(C)(C)CCC2=O [BS-OR-012]	2.39

[A] C=C1C(=O)[C@]23[C@H](O)[C@H]1CC[C@H]2[C@@]12CO[C@]3(O)[C@@H](O)[C@@H]1C(C)(C)CC[C@@H]2O [OR, Oridonin]
[B] C=C1C(=O)[C@]23[C@H](OC(=O)C4CCN(S(=O)(=O)c5ccccc5)CC4)[C@H]1CC[C@H]2[C@@]12CO[C@@]3(O)[C@@H](O)[C@@H]1C(C)(C)CCC2=O [BS-OR-032]
Prompt: Between the entries labeled A and B , whose measured IC50 is lower? # respond with the chosen item's label
Response: B
(B: 2.93 µg/mL, A: 5.06 µg/mL)
